# target: Tyrosine-protein kinase BTK (Homo sapiens)
assayMetric: IC50 (nM)
Number in nM, nothing else.

Which IC50 is reported for this compound? Nc1ncnc2c1c(-c1ccc(Oc3ccccc3)cc1)nn2C1CCCN(C(=O)/C=C/Cl)C1 (stereo unspecified)
0.52

====

Give measured Activity for each item. Keep answers brief.
# System: GTPase KRas (Homo sapiens), P01116 [G12C]
# experimentNotes: Binding affinity to hexa-histidine-tagged recombinant human K-Ras isoform 2 G12C mutant (1 to 169 residues) expressed in Escherichia coli BL21 (DE3) at 10 uM after 24 hrs
Number in %, nothing else.

Which Activity is reported for this compound? "C=CS(=O)(=O)NC1CCN(C(=O)CNc2c(Cl)cc(Cl)c3c2OC(C)(C)O3)CC1"
50

Entry "C=CC(=O)N1CCN(C(=O)CNc2cc(Cl)c(Cl)cc2OC)CC1" please
28

Entry "C=CS(=O)(=O)NC1CCN(C(=O)CNc2cc(Cl)c(Cl)cc2O)CC1" please
87

Entry "C=CC(=O)N1CCN(C(=O)CNc2cc(I)c(Cl)cc2O)CC1" please
100

Entry "C=CS(=O)(=O)NC1CCN(C(=O)CNc2cc(I)c(Cl)cc2OC)CC1" please
100

Entry "C=CC(=O)N1CCN(C(=O)CNc2cc(C(F)(F)F)c(Cl)cc2OC)CC1" please
14
